Origin of the recorded values: patent US20240301023A1

- target_of_assay: Kappa opioid receptor (KOR) (Homo sapiens (Human)) (UniProt P41145)
- Sequence (P41145 whole entry): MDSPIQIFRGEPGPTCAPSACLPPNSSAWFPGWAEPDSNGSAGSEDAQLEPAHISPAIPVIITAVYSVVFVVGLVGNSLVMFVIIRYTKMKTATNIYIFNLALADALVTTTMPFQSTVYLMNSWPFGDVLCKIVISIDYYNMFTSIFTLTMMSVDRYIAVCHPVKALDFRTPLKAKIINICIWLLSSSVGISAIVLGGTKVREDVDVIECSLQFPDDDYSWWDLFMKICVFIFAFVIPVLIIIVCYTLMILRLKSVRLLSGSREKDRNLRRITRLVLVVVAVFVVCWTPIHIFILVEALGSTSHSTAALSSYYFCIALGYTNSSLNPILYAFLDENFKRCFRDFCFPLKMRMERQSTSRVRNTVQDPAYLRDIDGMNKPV
- method: cell-based or functional assay
measure_name: Activity (EC50, nM), cAMP assay

Use the examples below as a reference point.
# substance, Activity (EC50, nM), cAMP assay
records = [
    ("Dyn1-7 (SEQ ID NO. 38: Tyr-Gly-Gly-Phe-Leu-Arg-Arg) (peptide)", 1600),
    ("SEQ ID NO. 4: NH2-Tyr-Sar-(4-NO2)Phe-Leu-Arg-DArg-NH2 (peptide)", 8.4),
]

1. SEQ ID NO. 24: NH2-Tyr-Sar-(4-Cl)Phe-Leu-Arg-DArg-C7H14-CONH2 (peptide)
2. SEQ ID NO. 18: NH2-Tyr-Sar-(4-NO2)Phe-Leu-Arg-NMA-NH2 (peptide)
[Q] Could you determine which record has the numerically smaller Activity (EC50, nM), cAMP assay? Candidates: 1 and 2 Label of pick, please.
[A] 2
